Taken from ChEMBL document CHEMBL3745625.

- Tested on: C2C12
- assay_info: Cytotoxicity against mouse C2C12 cells assessed as reduction in cell viability at 10 uM after 3 days by MTT assay
- Format: cell-based
- measurement_context: c2c12, 72 h
measure_name: Activity

Recorded results for 5 molecules are shown here.
CCCOc1ccc2c(c1)CCN(c1ccc(C(=O)Nc3cccc(C)n3)cn1)C2 : Non-toxic
Cc1cccc(NC(=O)c2ccc(N3CCc4cc(OCCCc5ccccc5)ccc4C3)nc2)n1 : Non-toxic
CCCCOc1ccc2c(c1)CCN(c1ccc(C(=O)Nc3cccc(C)n3)cn1)C2 : Non-toxic
Cc1cccc(NC(=O)c2ccc(N3CCc4cc(O)ccc4C3)nc2)n1 : Non-toxic
COc1ccc2c(c1)CCN(c1cnc(C(=O)Nc3cccc(C)n3)cn1)C2 : Non-toxic

Now turn to the next molecule.
Activity reading for COc1cccc(NC(=O)c2cnc(N3CCc4ccccc4C3)nc2)c1 : Non-toxic
